Listed compounds paired with reported GI50
System: PC-3
Method notes: NCI tumour cell line growth inhibition, 48 h
Activity calls are given as the source filed them. Cut-off read from the data, not from the text of the source: active = GI50 up to about 1.1 µM and inactive = higher.

Guide cases for GI50, answers given:
[
  {
    "Compound": "CC(C)(C)OC(=O)CCC1NC(=O)[C@@H]2Cc3c([nH]c4ccccc34)C(c3ccccc3)N2C1=O (some centres not stated)",
    "GI50": "19.3 µM (inactive)"
  },
  {
    "Compound": "O=C1NC(c2c(Cl)cccc2Cl)Nc2ccccc21 (configuration not stated)",
    "GI50": "71.1 µM (inactive)"
  },
  {
    "Compound": "O=C(Oc1ccc(S(=O)(=O)F)cc1F)c1ccccc1Cl",
    "GI50": "37.8 µM (inactive)"
  }
]

INPUT: Look up GI50 with PC-3 for this compound: NCCC(=O)N[C@H](Cc1cc(O)c(O)c(SCC(NC(=O)CC[C@H](N)C(=O)O)C(=O)NCC(=O)O)c1)C(=O)O (some centres not stated)
OUTPUT: > 50 µM (inactive)

INPUT: Look up GI50 with PC-3 for this compound: COc1cc(C2c3cc4c(cc3OC(NCCO)C2C)OCO4)cc(OC)c1OC (configuration not stated)
OUTPUT: 0.418 µM (active)

INPUT: Look up GI50 with PC-3 for this compound: CCC1(C)N=c2c(ncn2N=C(C)C)=C(C(N)=O)N1 (configuration not stated)
OUTPUT: > 100 µM (inactive)

INPUT: Look up GI50 with PC-3 for this compound: CCOc1ccc(NC2=CC(=O)C(=O)c3ccccc32)cc1
OUTPUT: 3.12 µM (inactive)
